# Test system: 2,3-epoxysqualene-lanosterol cyclase
# EXPERIMENT SUMMARY: In vivo effect in the rat after oral administration: 2,3-epoxysqualene level in plasma
# Design: species or system rat (male Wistar)
# CONDITION NOTES: 0.1 mg/kg oral, 5 hours after administration
PROPERTY LABEL: 2,3-Epoxysqualene concentration in plasma (rat) (µg/mL)
Reply with just the number (in µg/mL).

Example cases with answers are listed next.
# SUBSTANCE SMILES, UOM, RECORDED NUMBER
records = [
    ("O=C(c1ccc(Cl)cc1)N1CCC(=Cc2ccc(C3=NCCO3)cc2)C1", "µg/mL", 0.0),
    ("Cc1cc(C(=O)N2CCC(=Cc3ccc(C4=NCCO4)cc3)CC2)ccc1Cl", "µg/mL", 0.78),
    ("O=C(c1ccc(F)cc1)N1CCC(=Cc2ccc(C3=NCCO3)cc2)CC1", "µg/mL", 0.67),
    ("Cc1cc(C=C2CCN(C(=O)c3ccc(Cl)cc3)CC2)ccc1C1=NCCO1", "µg/mL", 0.78),
    ("O=C(C1CCCCC1)N1CCC(=Cc2ccc(C3=NCCO3)cc2)CC1", "µg/mL", 0.36),
]

Req: Data request, read-out 2,3-Epoxysqualene concentration in plasma (rat), for O=C(c1ccc(Cl)cc1)N1CCC(Cc2ccc(C3=NCCO3)cc2)CC1
Resp: 3.41

Req: Data request, read-out 2,3-Epoxysqualene concentration in plasma (rat), for O=C(c1ccc(Cl)s1)N1CCC(=Cc2ccc(C3=NCCO3)cc2)CC1
Resp: 0.00
